Source listed as patent US20250136677A1.

Assignment: determine reported pKd for the given binders.
Molecular target: T1, wildtype feline IL-31 protein (Feline_IL31_wildtype) (feline)
T1 construct: Full length feline IL-31 with C-terminal His tag, secreted from ExpiCHO cells; also called fIL-31
T1 chain: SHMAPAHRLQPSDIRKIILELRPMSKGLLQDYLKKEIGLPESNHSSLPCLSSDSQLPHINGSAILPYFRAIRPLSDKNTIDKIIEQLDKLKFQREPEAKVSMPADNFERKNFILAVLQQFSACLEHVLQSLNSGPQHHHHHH
Experiment: SPR (Biacore), IL-31 on chip, 1:1 fit
Experimental: The affinity with which candidate mAbs bind canine and feline IL-31 was determined using surface plasmon resonance (SPR) on a Biacore system (Biocore Life Sciences (GE Healthcare), Uppsala, Sweden). […] Chips were quenched with ethanolamine and the affinity with which all candidate mAbs bound to the immobilized IL-31 was evaluated. […]
Units for pKd: none; it is -log10 of a concentration expressed in mol/L.

Suppose we examine the binder Feline 15H05 1.3 (antibody, V domains shown, Feline heavy and kappa constant regions) VH: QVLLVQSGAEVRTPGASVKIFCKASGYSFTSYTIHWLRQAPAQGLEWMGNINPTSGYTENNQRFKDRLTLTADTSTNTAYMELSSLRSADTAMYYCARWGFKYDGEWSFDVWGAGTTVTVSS VL: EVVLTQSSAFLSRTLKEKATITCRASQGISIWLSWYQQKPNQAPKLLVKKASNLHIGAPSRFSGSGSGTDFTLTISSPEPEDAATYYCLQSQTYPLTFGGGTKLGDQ ; what pKd value has been reported?
7.06

Next up: Feline 15H05 3.3 (antibody, V domains shown, Feline heavy and kappa constant regions) VH: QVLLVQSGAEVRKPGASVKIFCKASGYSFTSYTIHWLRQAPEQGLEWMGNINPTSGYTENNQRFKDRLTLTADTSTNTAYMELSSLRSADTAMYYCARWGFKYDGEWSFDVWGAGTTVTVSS VL: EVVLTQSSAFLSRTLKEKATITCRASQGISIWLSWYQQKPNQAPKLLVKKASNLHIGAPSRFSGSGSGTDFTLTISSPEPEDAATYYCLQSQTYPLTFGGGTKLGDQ
7.94

Now try Feline 11E12 1.1 (antibody, V domains shown, Variable chains were subcloned into plasmids with 'the respective feline heavy or kappa constant region'; Made in HEK 293 cells; also called Felinized 11E12 1.1; felinized 11E12) VH: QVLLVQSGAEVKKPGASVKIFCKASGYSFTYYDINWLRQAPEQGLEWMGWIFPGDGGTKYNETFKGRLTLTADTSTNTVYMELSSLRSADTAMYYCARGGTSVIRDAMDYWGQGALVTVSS VL: EIQMTQSPSSLSASPGDRVTITCRASESVDNYGISFMHWYQQKPGKVPKLLIYRASNLESGVPSRFSGSGSGTDFTLTISSLEPEDAATYYCQQSNKDPLTFGQGT .
7.65
